Readout Type: CO2 permeability (Barrer)
Kindly answer with a numeric value in Barrer, unit omitted.

Some compounds with known CO2 permeability results, for comparison:
{"Compound": "*c1ccc(N2C(=O)c3ccc(C(c4ccc5c(c4)C(=O)N(*)C5=O)(C(F)(F)F)C(F)(F)F)cc3C2=O)cc1 (repeat unit)", "Readout Type": "CO2 permeability", "Unit Abbreviation": "Barrer", "Endpoint Value": 62}
{"Compound": "*/C(C)=C(/*)[Si](C)(C)C (repeat unit)", "Readout Type": "CO2 permeability", "Unit Abbreviation": "Barrer", "Endpoint Value": 28600}
{"Compound": "*Oc1c(C)cc(C(C)(C)c2ccc(C(C)(C)c3cc(C)c(Oc4ccc(S(=O)(=O)c5ccc(*)cc5)cc4)c(C)c3)cc2)cc1C (repeat unit)", "Readout Type": "CO2 permeability", "Unit Abbreviation": "Barrer", "Endpoint Value": 13.2}
{"Compound": "*C(=C(*)c1ccc(C(C)(C)C)cc1)c1ccc(O)cc1 (repeat unit)", "Readout Type": "CO2 permeability", "Unit Abbreviation": "Barrer", "Endpoint Value": 530}
{"Compound": "*O[Si](C)(C)c1cccc([Si](*)(C)C)c1 (repeat unit)", "Readout Type": "CO2 permeability", "Unit Abbreviation": "Barrer", "Endpoint Value": 518}

Lookup: What does the data say about its CO2 permeability? Entry: *NC(=O)c1ccc(C(c2ccc(C(=O)Nc3c(C)cc4c(c3C)C3c5ccccc5C4c4cc(C)c(*)c(C)c43)cc2)(C(F)(F)F)C(F)(F)F)cc1 (repeat unit)
Found: 121

Lookup: # CO2 permeability lookup, item *c1cccc(N2C(=O)c3ccc(Oc4ccc5c(c4)C(=O)N(*)C5=O)cc3C2=O)c1 (repeat unit)
Found: 0.301

Lookup: I have this compound here, *CC1CC(C*)C2C1C([Si](O[Si](C)(C)C)(O[Si](C)(C)C)O[Si](C)(C)C)C2[Si](O[Si](C)(C)C)(O[Si](C)(C)C)O[Si](C)(C)C (repeat unit) , and I need its recorded CO2 permeability.
Found: 840

Lookup: Record request: CO2 permeability value, item *OC(=O)c1ccc(C(=O)Oc2ccc(C3(c4ccc(O*)cc4)OC(=O)c4ccccc43)cc2)cc1 (repeat unit)
Found: 11.7

Lookup: Quick check: CO2 permeability of *Oc1ccc(C(C)(C)c2ccc(OC(=O)c3cccc(C(*)=O)c3)c(C(C)C)c2)cc1C(C)C (repeat unit) ?
Found: 5.16

Lookup: Consider the compound *OC(=O)c1ccc(C(=O)Oc2ccc(C3(c4ccc(O*)c(C)c4)OC(=O)c4ccccc43)cc2C)cc1 (repeat unit) and give its measured CO2 permeability.
Found: 5

Lookup: Item *CC* (repeat unit) has what recorded CO2 permeability?
Found: 7.32

Lookup: // lookup CO2 permeability for *Oc1c(C)cc(C(C)(C)c2cc(C)c(OC(=O)c3cccc(C(*)=O)c3)c(Br)c2)cc1Br (repeat unit)
Found: 5.45

Lookup: // query CO2 permeability value for entry *C(=C(*)c1ccc([Si](C)(C)C)cc1)c1ccc(O[Si](C)(C)C(C)(C)C)cc1 (repeat unit)
Found: 3800

Lookup: Request the reported CO2 permeability associated with *CO* (repeat unit)
Found: 0.45

Lookup: Can you share its CO2 permeability? I mean this compound: *Oc1ccc(Oc2cccc(*)c2C#N)c(-c2cc(C)cc(C)c2)c1 (repeat unit)
Found: 3.5
